# System: human red blood cells (hRBC)
# Procedure Summary: Hemolysis of human red blood cells
# Format: cell-based
# Stated Conditions: red cells of human, 1 h, 100
Where a SMILES comes first, the peptide text is derived from it. [ ]: non-standard residue; d: D form. Chg = N[C@H](C(=O)O)C1CCCCC1; Tle = CC(C)(C)[C@H](N)C(=O)O; dDab = NCC[C@@H](N)C(=O)O; Orn = NCCC[C@H](N)C(=O)O; Dab = NCC[C@H](N)C(=O)O; Nva = CCC[C@H](N)C(=O)O
Catalogue of molecules with associated Hemolysis at 100 μg/ml
Give the value; after it, write the unit.

| Molecule | Result |
| --- | --- |
| CC(C)C[C@@H]1NC(=O)[C@@H]2CCCN2C(=O)[C@H]2CCCN2C(=O)[C@H](CO)NC(=O)[C@H](Cc2ccc(O)cc2)NC(=O)[C@H](C(C)(C)C)NC(=O)[C@H](CCN)NC(=O)[C@H](Cc2c[nH]c3ccccc23)NC(=O)[C@H](CCN)NC(=O)[C@@H](CCN)NC(=O)[C@H](CCCN)NC(=O)[C@H](CCN)NC(=O)[C@H](Cc2ccc(O)cc2)NC(=O)[C@H](CC(=O)O)NC1=O [compound 112] (cyclo(LDY[Dab][Orn][dDab][Dab]W[Dab][Tle]YS[dP]P)) | 0% |

# next molecule below
Exam item: Give the reported value of Hemolysis at 100 μg/ml for this record: CCC[C@@H]1NC(=O)[C@@H]2CCCN2C(=O)[C@H]2CCCN2C(=O)[C@H](CO)NC(=O)[C@H](C)NC(=O)[C@H](C2CCCCC2)NC(=O)[C@H](CCN)NC(=O)[C@H](Cc2c[nH]c3ccccc23)NC(=O)[C@H](CCN)NC(=O)[C@@H](CCN)NC(=O)[C@H](CCCN)NC(=O)[C@H](CCN)NC(=O)[C@H](Cc2ccc(O)cc2)NC(=O)[C@H](CO)NC1=O [compound 89] (cyclo([Nva]SY[Dab][Orn][dDab][Dab]W[Dab][Chg]AS[dP]P))
Marked response: 0%

###

# System: human red blood cells (hRBC)
# Procedure Summary: Hemolysis of human red blood cells
# Assay type: cell-based
# Stated Conditions: red cells of human, 1 h, 100
*1 amine or outer side, *2 acyl side, *3 side chain or, on linkers, in order; H or OH if unused. Where a SMILES comes first, the peptide text is derived from it. [ ]: non-standard residue; d: D form. X1 = CC(C)NC[C@H](N[*:1])C(=O)[*:2]; Cha = N[C@@H](CC1CCCCC1)C(=O)O; Tle = CC(C)(C)[C@H](N)C(=O)O; dDab = NCC[C@@H](N)C(=O)O; hSer = N[C@@H](CCO)C(=O)O; Orn = NCCC[C@H](N)C(=O)O; Dab = NCC[C@H](N)C(=O)O
Catalogue of molecules with associated Hemolysis at 100 μg/ml
Number only, in %; omit the unit.

Solved cases below.
| Molecule | Hemolysis at 100 μg/ml (%) |
| --- | --- |
| CC(C)[C@@H]1NC(=O)[C@@H]2CCCN2C(=O)[C@H]2CCCN2C(=O)[C@H](CO)NC(=O)[C@H](C)NC(=O)[C@H](C(C)(C)C)NC(=O)[C@H](CCN)NC(=O)[C@H](Cc2c[nH]c3ccccc23)NC(=O)[C@H](CCN)NC(=O)[C@@H](CCN)NC(=O)[C@H](CCCN)NC(=O)[C@H](CCN)NC(=O)[C@H](CC2CCCCC2)NC(=O)[C@H](CO)NC1=O [compound 50] (cyclo(VS[Cha][Dab][Orn][dDab][Dab]W[Dab][Tle]AS[dP]P)) | 4 |
| CC(C)C[C@@H]1NC(=O)[C@@H]2CCCN2C(=O)[C@H]2CCCN2C(=O)[C@H](CO)NC(=O)[C@H](CC(N)=O)NC(=O)[C@H](C(C)(C)C)NC(=O)[C@H](CCN)NC(=O)[C@H](Cc2c[nH]c3ccccc23)NC(=O)[C@H](CCN)NC(=O)[C@@H](CCN)NC(=O)[C@H](CCCN)NC(=O)[C@H](CCN)NC(=O)[C@H](Cc2ccc(O)cc2)NC(=O)[C@H]([C@@H](C)O)NC1=O [compound 119] (cyclo(LTY[Dab][Orn][dDab][Dab]W[Dab][Tle]NS[dP]P)) | 1 |
| CC[C@H](C)[C@@H]1NC(=O)[C@@H]2CCCN2C(=O)[C@H]2CCCN2C(=O)[C@H](CO)NC(=O)[C@H](C)NC(=O)[C@H](C(C)(C)C)NC(=O)[C@H](CCN)NC(=O)[C@H](Cc2c[nH]c3ccccc23)NC(=O)[C@H](CCN)NC(=O)[C@@H](CCN)NC(=O)[C@H](CCCCN)NC(=O)[C@H](CCN)NC(=O)[C@H](Cc2ccc(O)cc2)NC(=O)[C@H](CO)NC1=O [compound 82] (cyclo(ISY[Dab]K[dDab][Dab]W[Dab][Tle]AS[dP]P)) | 1 |
| CC(C)C[C@@H]1NC(=O)[C@@H]2CCCN2C(=O)[C@H]2CCCN2C(=O)[C@H](CO)NC(=O)[C@H](C)NC(=O)[C@H](C(C)(C)C)NC(=O)[C@H](CCN)NC(=O)[C@H](Cc2c[nH]c3ccccc23)NC(=O)[C@H](CCCNC(=N)N)NC(=O)[C@@H](CCN)NC(=O)[C@H](CCCN)NC(=O)[C@H](CCN)NC(=O)[C@H](Cc2ccc(O)cc2)NC(=O)[C@H](CO)NC1=O [compound 102] (cyclo(LSY[Dab][Orn][dDab]RW[Dab][Tle]AS[dP]P)) | 0 |

# next molecule below
Exam item: Give the reported value of Hemolysis at 100 μg/ml for this record: CC(C)NC[C@@H]1NC(=O)[C@H](Cc2c[nH]c3ccccc23)NC(=O)[C@@H]2CCCN2C(=O)[C@H]2CCCN2C(=O)[C@H](CO)NC(=O)[C@H](C)NC(=O)[C@H](C(C)(C)C)NC(=O)[C@H](CCO)NC(=O)[C@H](Cc2c[nH]c3ccccc23)NC(=O)[C@H](CCN)NC(=O)[C@@H](CCN)NC(=O)[C@H](CCCN)NC(=O)[C@H](CCN)NC(=O)[C@H](CC2CCCCC2)NC1=O [compound 9] (cyclo(W[X1][Cha][Dab][Orn][dDab][Dab]W[hSer][Tle]AS[dP]P))
Marked response: 2

###

# Tested on: human red blood cells (hRBC)
# Procedure Summary: Hemolysis of human red blood cells
# Type: cell-based
# Stated Conditions: red cells of human, 1 h, 100
Where a SMILES comes first, the peptide text is derived from it. [ ]: non-standard residue; d: D form. Tle = CC(C)(C)[C@H](N)C(=O)O; dDab = NCC[C@@H](N)C(=O)O; Orn = NCCC[C@H](N)C(=O)O; Dab = NCC[C@H](N)C(=O)O; Nva = CCC[C@H](N)C(=O)O
Catalogue of molecules with associated Hemolysis at 100 μg/ml
Number only, in %; omit the unit.

| Molecule | Parameter | Numeric Value |
| --- | --- | --- |
| CCC[C@@H]1NC(=O)[C@@H]2CCCN2C(=O)[C@H]2CCCN2C(=O)[C@H](CO)NC(=O)[C@H](CO)NC(=O)[C@H](C(C)(C)C)NC(=O)[C@H](CCN)NC(=O)[C@H](Cc2c[nH]c3ccccc23)NC(=O)[C@H](CCN)NC(=O)[C@@H](CCN)NC(=O)[C@H](CCCN)NC(=O)[C@H](CCN)NC(=O)[C@H](Cc2ccc(O)cc2)NC(=O)[C@H](CO)NC1=O [compound 118] (cyclo([Nva]SY[Dab][Orn][dDab][Dab]W[Dab][Tle]SS[dP]P)) | Hemolysis at 100 μg/ml | 1 |

Exam item: Give the reported value of Hemolysis at 100 μg/ml for this record: CC(C)C[C@@H]1NC(=O)[C@@H]2CCCN2C(=O)[C@H]2CCCN2C(=O)[C@H]([C@@H](C)O)NC(=O)[C@H](CO)NC(=O)[C@H](C(C)(C)C)NC(=O)[C@H](CCN)NC(=O)[C@H](Cc2c[nH]c3ccccc23)NC(=O)[C@H](CCN)NC(=O)[C@@H](CCN)NC(=O)[C@H](CCN)NC(=O)[C@H](CCN)NC(=O)[C@H](Cc2ccc(O)cc2)NC(=O)[C@H]([C@@H](C)O)NC1=O [compound 124] (cyclo(LTY[Dab][Dab][dDab][Dab]W[Dab][Tle]ST[dP]P))
Marked response: 0.5
